B1: SCNN1D (parent)
chain: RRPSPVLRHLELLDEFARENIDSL

Variants of: B1
Test Details: protein stability index of a GFP-peptide fusion (GPS, HEK-293T) (PSI 1-6); higher = more stable;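 note: lentivirally expressed fusions sorted by FACS into six bins by GFP to DsRed ratio, PSI derived from sequencing read proportions per bin multiplied by bin number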
Cond: c terminus: a fixed tail appended
Measured protein stability index by item

| Monomer Sequence | protein stability index |
| --- | --- |
| RRPSPVLRWLELLDEFARENIDSL [H9W] | 1.69 |
| RRPSPVLRHLELLDMFARENIDSL [E15M] | 2.18 |
| RRPSPALRHLELLDEFARENIDSL [V6A] | 2.86 |

Values from the supplement of paper PMC10567573
